- Experimental Protocol: Toxicity LD50 mouse
- Experimental Setup: in vivo, po, read-out: Toxicity LD 50
Property Measured: LD50

Problem: Reported LD50, compound COCC1CN(c2ccc(OCC3CCC3)cc2)C(=O)O1 (stereo not drawn) [compound 183] : ____
Solution: > 1000 mg/kg

Problem: Now the same for COCC1CN(c2ccc(OCC3CCCCC3)cc2)C(=S)O1 (stereo not drawn) [compound 114]
Solution: > 2000 mg/kg

Problem: Now the same for COCC1CN(c2ccc(OCc3ccc([N+](=O)[O-])c(Cl)c3)cc2)C(=O)O1 (stereo not drawn) [compound 168]
Solution: > 1000 mg/kg

Problem: Now the same for COCC1CN(c2ccc(/C=C/c3cccc(Cl)c3)cc2)C(=O)O1 (stereo not drawn) [compound 190]
Solution: > 1000 mg/kg

Problem: Now the same for COCC1CN(c2ccc(/C=C/c3cccc([N+](=O)[O-])c3)cc2)C(=O)O1 (stereo not drawn) [compound 191]
Solution: 1000 mg/kg

Problem: Now the same for CNCC1CN(c2ccc(OCC3CCCC3)cc2)C(=O)O1 (stereo not drawn) [compound 77]
Solution: > 2000 mg/kg

Problem: Now the same for CC(=O)OCC1CN(c2ccc(OCCC(C)C)cc2)C(=O)O1 (stereo not drawn) [compound 123]
Solution: > 2000 mg/kg

Problem: Now the same for CCOCC1CN(c2ccc(OCc3cccc([N+](=O)[O-])c3)cc2)C(=S)O1 (stereo not drawn) [compound 216]
Solution: 1000 mg/kg

Problem: Now the same for OCC1CCN(c2ccc(OCc3ccccc3)cc2)C1 (stereo not drawn) [compound 220]
Solution: > 1000 mg/kg

---

A collection of molecules and their measured ED50
- System: generalized trembling caused by dl-5-hydroxytryptophane
- Experimental Protocol: Test A: potentiation in mice of generalized trembling caused by dl-5-hydroxytryptophane
- Type: in vivo
- Experimental Setup: Mus musculus, po, mice, potentiation of trembling by dl-5-hydroxytryptophane 200 mg/kg interperitoneal, read-out: Test A ED 50
- Procedure: Test A: Potentiation in mice of generalized trembling caused by an interperitoneal injection (200 mg/kg) of dl-5-hydroxytryptophane, following the protocol described by C. GOURET and G. RAYNAUD in J. Pharmacol. (Paris), (1974), 5, 231.

> print(dat)
                                   molecule  value.reported
1  CCCCCCCCC(=O)OCC1CN(c2ccc(OCc3cccc(C#N)c3)cc2)C(=O)O1 (stereo not drawn)         6 mg/kg
2  OCC1CCN(c2ccc(OCc3ccccc3)cc2)C1 (stereo not drawn)        50 mg/kg
3  CC(C)COCC1CN(c2ccc(OCc3cccc([N+](=O)[O-])c3)cc2)C(=O)O1 (stereo not drawn)       4.7 mg/kg

Problem: Under generalized trembling caused by dl-5-hydroxytryptophane: ED50 value of COCC1CN(c2ccc(OCc3cccc([N+](=O)[O-])c3)cc2)C(=O)O1 (stereo not drawn) ?
Solution: 0.08 mg/kg

Problem: Now the same for CCOCC1CN(c2ccc(OCc3cccc([N+](=O)[O-])c3)cc2)C(=S)O1 (stereo not drawn)
Solution: 5 mg/kg

Problem: Now the same for CCCCOc1ccc(N2CC(CNC)OC2=O)cc1 (stereo not drawn)
Solution: 4 mg/kg

Problem: Now the same for CCCCC(=O)OCC1CN(c2ccc(OCc3ccccc3)cc2)C(=O)O1 (stereo not drawn)
Solution: 12.5 mg/kg

Problem: Now the same for CC(=O)OCC1CN(c2ccc(OCc3cccc([N+](=O)[O-])c3)cc2)C(=S)O1 (stereo not drawn)
Solution: 1.2 mg/kg

Problem: Now the same for CC(=O)OCC1CN(c2ccc(OCC3CCCCC3)cc2)C(=S)O1 (stereo not drawn)
Solution: 3.8 mg/kg
